Target: human GRP receptor (human, UniProt P30550 1-384)
Sequence (P30550 whole entry): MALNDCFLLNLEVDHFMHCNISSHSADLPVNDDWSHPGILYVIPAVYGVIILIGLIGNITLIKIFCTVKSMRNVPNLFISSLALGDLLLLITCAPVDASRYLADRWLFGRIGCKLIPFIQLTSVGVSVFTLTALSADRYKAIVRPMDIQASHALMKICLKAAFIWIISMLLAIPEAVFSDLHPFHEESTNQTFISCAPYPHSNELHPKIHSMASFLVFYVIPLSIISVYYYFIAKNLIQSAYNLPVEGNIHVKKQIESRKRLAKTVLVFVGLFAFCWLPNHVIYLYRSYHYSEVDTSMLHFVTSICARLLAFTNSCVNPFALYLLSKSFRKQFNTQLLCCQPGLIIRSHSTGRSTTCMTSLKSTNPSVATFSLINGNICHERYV
Assay: cell-based or functional assay
Starred links: 1 amine or outer side, 2 acyl side, 3 side chain; linkers in the order of their positions; H or OH if unused. Non-standard residues stand in square brackets, D forms with d. *: point of attachment. Trp(6-Me) = Cc1ccc2c(C[C@H](N)C(=O)O)c[nH]c2c1; Trp(7-Me) = Cc1cccc2c(C[C@H](N)C(=O)O)c[nH]c12; C20 diacid = O=C(O)CCCCCCCCCCCCCCCCCCC(=O)*; d(γGlu) = O=C(O)[C@@H](CCC(=O)[*:2])N[*:1]; C18 diacid = O=C(O)CCCCCCCCCCCCCCCCC(=O)*; γGlu = O=C(O)[C@H](CCC(=O)[*:2])N[*:1]; Palmitoyl = CCCCCCCCCCCCCCCC(=O)*; 2Pal = N[C@@H](Cc1ccccn1)C(=O)O; 3Pal = N[C@@H](Cc1cccnc1)C(=O)O; Nle = CCCC[C@H](N)C(=O)O; AEEA = NCCOCCOCC(=O)O; Aib = CC(C)(N)C(=O)O; βAla = NCCC(=O)O; Sar = CNCC(=O)O
Given measured hIP1 GRPR EC50, output Satisfied if it is greater than or equal to 9 nM and Not satisfied if not.

[[record]]
binder = "Palmitoyl-[d(γGlu)][AEEA][AEEA]GNH[Trp(6-Me)]AV[dA]HL[Nle]-NH2 (SMILES CCCCCCCCCCCCCCCC(=O)N[C@H](CCC(=O)NCCOCCOCC(=O)NCCOCCOCC(=O)NCC(=O)N[C@@H](CC(N)=O)C(=O)N[C@@H](Cc1c[nH]cn1)C(=O)N[C@@H](Cc1c[nH]c2cc(C)ccc12)C(=O)N[C@@H](C)C(=O)N[C@H](C(=O)N[C@H](C)C(=O)N[C@@H](Cc1c[nH]cn1)C(=O)N[C@@H](CC(C)C)C(=O)N[C@@H](CCCC)C(N)=O)C(C)C)C(=O)O) [Peptide 63]"
qualitative_label = "Not satisfied"

[[record]]
binder = "Palmitoyl-[d(γGlu)][AEEA][AEEA]GN[2Pal]WAV[dA]HL[Nle]-NH2 (SMILES CCCCCCCCCCCCCCCC(=O)N[C@H](CCC(=O)NCCOCCOCC(=O)NCCOCCOCC(=O)NCC(=O)N[C@@H](CC(N)=O)C(=O)N[C@@H](Cc1ccccn1)C(=O)N[C@@H](Cc1c[nH]c2ccccc12)C(=O)N[C@@H](C)C(=O)N[C@H](C(=O)N[C@H](C)C(=O)N[C@@H](Cc1c[nH]cn1)C(=O)N[C@@H](CC(C)C)C(=O)N[C@@H](CCCC)C(N)=O)C(C)C)C(=O)O) [Peptide 51]"
qualitative_label = "Not satisfied"

[[record]]
binder = "Palmitoyl-[d(γGlu)][AEEA][AEEA]GEH[Trp(7-Me)][Aib]V[dA][3Pal]L[Nle][Sar]-NH2 (SMILES CCCCCCCCCCCCCCCC(=O)N[C@H](CCC(=O)NCCOCCOCC(=O)NCCOCCOCC(=O)NCC(=O)N[C@@H](CCC(=O)O)C(=O)N[C@@H](Cc1c[nH]cn1)C(=O)N[C@@H](Cc1c[nH]c2c(C)cccc12)C(=O)NC(C)(C)C(=O)N[C@H](C(=O)N[C@H](C)C(=O)N[C@@H](Cc1cccnc1)C(=O)N[C@@H](CC(C)C)C(=O)N[C@@H](CCCC)C(=O)N(C)CC(N)=O)C(C)C)C(=O)O) [Peptide 19]"
qualitative_label = "Satisfied"

[[record]]
binder = "{C18 diacid}-[γGlu][AEEA][AEEA]FNHWAV[βAla]HL[Nle]-NH2 (SMILES CCCC[C@H](NC(=O)[C@H](CC(C)C)NC(=O)[C@H](Cc1c[nH]cn1)NC(=O)CCNC(=O)[C@@H](NC(=O)[C@H](C)NC(=O)[C@H](Cc1c[nH]c2ccccc12)NC(=O)[C@H](Cc1c[nH]cn1)NC(=O)[C@H](CC(N)=O)NC(=O)[C@H](Cc1ccccc1)NC(=O)COCCOCCNC(=O)COCCOCCNC(=O)CC[C@H](NC(=O)CCCCCCCCCCCCCCCCC(=O)O)C(=O)O)C(C)C)C(N)=O) [Peptide 140]"
qualitative_label = "Not satisfied"

[[record]]
binder = "{C20 diacid}-[γGlu][γGlu][AEEA][AEEA]GQH[Trp(7-Me)]AV[BABA]HL[Nle]-NH2 [Peptide 259]"
qualitative_label = "Not satisfied"

[[record]]
binder = "Palmitoyl-[d(γGlu)][AEEA][AEEA]GN[3Pal]WAV[Aib]HL[Nle]-NH2 (SMILES CCCCCCCCCCCCCCCC(=O)N[C@H](CCC(=O)NCCOCCOCC(=O)NCCOCCOCC(=O)NCC(=O)N[C@@H](CC(N)=O)C(=O)N[C@@H](Cc1cccnc1)C(=O)N[C@@H](Cc1c[nH]c2ccccc12)C(=O)N[C@@H](C)C(=O)N[C@H](C(=O)NC(C)(C)C(=O)N[C@@H](Cc1c[nH]cn1)C(=O)N[C@@H](CC(C)C)C(=O)N[C@@H](CCCC)C(N)=O)C(C)C)C(=O)O) [Peptide 3]"
qualitative_label = "Not satisfied"

[[record]]
binder = "{C18 diacid}-[d(γGlu)][AEEA][AEEA]GNHWAV[dA]HL[Nle][Sar]-NH2 (SMILES CCCC[C@H](NC(=O)[C@H](CC(C)C)NC(=O)[C@H](Cc1c[nH]cn1)NC(=O)[C@@H](C)NC(=O)[C@@H](NC(=O)[C@H](C)NC(=O)[C@H](Cc1c[nH]c2ccccc12)NC(=O)[C@H](Cc1c[nH]cn1)NC(=O)[C@H](CC(N)=O)NC(=O)CNC(=O)COCCOCCNC(=O)COCCOCCNC(=O)CC[C@@H](NC(=O)CCCCCCCCCCCCCCCCC(=O)O)C(=O)O)C(C)C)C(=O)N(C)CC(N)=O) [Peptide 47]"
qualitative_label = "Satisfied"

[[record]]
binder = "{C18 diacid}-[d(γGlu)][AEEA][AEEA]GEHW[Aib]V[dA]HL[Nle]-NH2 (SMILES CCCC[C@H](NC(=O)[C@H](CC(C)C)NC(=O)[C@H](Cc1c[nH]cn1)NC(=O)[C@@H](C)NC(=O)[C@@H](NC(=O)C(C)(C)NC(=O)[C@H](Cc1c[nH]c2ccccc12)NC(=O)[C@H](Cc1c[nH]cn1)NC(=O)[C@H](CCC(=O)O)NC(=O)CNC(=O)COCCOCCNC(=O)COCCOCCNC(=O)CC[C@@H](NC(=O)CCCCCCCCCCCCCCCCC(=O)O)C(=O)O)C(C)C)C(N)=O) [Peptide 70]"
qualitative_label = "Satisfied"

